# Test system: central memory T cells
# protocolText: Cultured IFN-γ ELISPOT after 10-day in vitro stimulation of PBMC, phase 1/2 colon cancer trial of OSE-2101
# Type: in vivo, human
# Set-up: key: —, indicates SFC response did not meet criteria and vaccine response was negative
# assaySetup: colon patient 603, Week 18
readoutKind: net SFC of vaccine positive CTL responses

> print(dat)
                entrysequence                  target              reportedvalue
1     YLSGADLNL [CEA.605D6 A]  central memory T cells                          —
2   KVAEIVHFL [MAGE3.112I5 A]  central memory T cells  16.0 SFC per 50,000 cells
3     SMPPPGTRV [p53.149M2 A]  central memory T cells                          —
4     IMIGHLVGV [CEA.691H5 A]  central memory T cells   8.0 SFC per 50,000 cells
5      LLTFWNPPV [CEA.24V9 A]  central memory T cells  20.7 SFC per 50,000 cells
6   KLBPVQLWV [p53.139L2B3 A]  central memory T cells                          —
7   YLQLVFGIEV [MAGE2.157 WT]  central memory T cells                          —
8  KVFGSLAFV [HER2.369L2V9 A]  central memory T cells                          —

---

# System: central memory T cells
# protocolText: Central memory T cell cultured ELISPOT, phase 2 trial in advanced NSCLC
# Assay type: in vivo, human
# assaySetup: phase 2, month 9
readoutKind: % of patients with positive CTL/central memory T cell response (%)

> print(dat)
                entrysequence  reportedvalue
1     RLLQETELV [HER2-689-WT]              0
2   KVAEIVHFL [MAGE3.112I5 A]              0
3     IMIGHLVGV [CEA.691H5 A]             43
4   YLQLVFGIEV [MAGE2.157 WT]             57
5     SMPPPGTRV [p53.149M2 A]              0
6   KLBPVQLWV [p53.139L2B3 A]             29
7  KVFGSLAFV [HER2.369L2V9 A]             29
8     YLSGADLNL [CEA.605D6 A]             14
9      LLTFWNPPV [CEA.24V9 A]             57

---

# Tested on: central memory T cells
# protocolText: Cultured IFN-γ ELISPOT after 10-day in vitro stimulation of PBMC, phase 1/2 NSCLC trial of OSE-2101
# Assay type: in vivo, human
# Set-up: key: —, indicates SFC response did not meet criteria and vaccine response was negative
# assaySetup: NSCLC patient 201, Week 18
readoutKind: net SFC of vaccine positive CTL responses

> print(dat)
                entrysequence  reportedvalue
1     IMIGHLVGV [CEA.691H5 A]              —
2     SMPPPGTRV [p53.149M2 A]              —
3  KVFGSLAFV [HER2.369L2V9 A]              —
4   KLBPVQLWV [p53.139L2B3 A]              —
5   KVAEIVHFL [MAGE3.112I5 A]              —
6   YLQLVFGIEV [MAGE2.157 WT]              —
7     YLSGADLNL [CEA.605D6 A]              —
8      LLTFWNPPV [CEA.24V9 A]              —

---

# System: central memory T cells
# protocolText: Cultured IFN-γ ELISPOT after 10-day in vitro stimulation of PBMC, phase 1/2 colon cancer trial of OSE-2101
# Format: in vivo, human
# assaySetup: colon patient 604, Week 9
readoutKind: net SFC of vaccine positive CTL responses

> print(dat)
                entrysequence               reportedvalue
1   KVAEIVHFL [MAGE3.112I5 A]   60.3 SFC per 50,000 cells
2      LLTFWNPPV [CEA.24V9 A]   55.3 SFC per 50,000 cells
3   YLQLVFGIEV [MAGE2.157 WT]                           —
4   KLBPVQLWV [p53.139L2B3 A]   41.0 SFC per 50,000 cells
5  KVFGSLAFV [HER2.369L2V9 A]   88.3 SFC per 50,000 cells
6     SMPPPGTRV [p53.149M2 A]                           —
7     YLSGADLNL [CEA.605D6 A]   70.0 SFC per 50,000 cells
8     IMIGHLVGV [CEA.691H5 A]  109.3 SFC per 50,000 cells

---

Items are presented alongside their recorded No. Positive Responses.
# Test system: central memory T cells
# protocolText: Cultured IFN-γ ELISPOT after 10-day in vitro stimulation of PBMC, phase 1/2 NSCLC trial of OSE-2101
# Format: in vivo, human
# assaySetup: 6 NSCLC patients, Week 9
readoutKind: No. Positive Responses

> print(dat)
                entrysequence             readoutkind  reportedvalue
1   YLQLVFGIEV [MAGE2.157 WT]  No. Positive Responses              2
2     YLSGADLNL [CEA.605D6 A]  No. Positive Responses              1
3      LLTFWNPPV [CEA.24V9 A]  No. Positive Responses              0
4  KVFGSLAFV [HER2.369L2V9 A]  No. Positive Responses              1
5     SMPPPGTRV [p53.149M2 A]  No. Positive Responses              0
6   KLBPVQLWV [p53.139L2B3 A]  No. Positive Responses              3
7     IMIGHLVGV [CEA.691H5 A]  No. Positive Responses              2
8   KVAEIVHFL [MAGE3.112I5 A]  No. Positive Responses              0

---

# System: central memory T cells
# protocolText: Cultured IFN-γ ELISPOT after 10-day in vitro stimulation of PBMC, phase 1/2 colon cancer trial of OSE-2101
# Assay type: in vivo, human
# Set-up: key: —, indicates SFC response did not meet criteria and vaccine response was negative
# assaySetup: colon patient 609, Week 9
# Experimental: Clinical study design. Both trials were designed as phase 1/2, open label, multi-center, single dose, multiple administration studies to evaluate the safety and immunogenicity of the OSE-2101 immunotherapy. Patients were treated with 1 ml OSE-2101 every 3 weeks for a total of six doses. […] Clinical responses or patient survival were not measured in either phase 1/2 studies. […]
readoutKind: net SFC of vaccine positive CTL responses

> print(dat)
                entrysequence              reportedvalue
1   YLQLVFGIEV [MAGE2.157 WT]                          —
2     YLSGADLNL [CEA.605D6 A]  75.3 SFC per 50,000 cells
3   KVAEIVHFL [MAGE3.112I5 A]                          —
4      LLTFWNPPV [CEA.24V9 A]                          —
5   KLBPVQLWV [p53.139L2B3 A]                          —
6     IMIGHLVGV [CEA.691H5 A]  89.0 SFC per 50,000 cells
7  KVFGSLAFV [HER2.369L2V9 A]  58.0 SFC per 50,000 cells
8     SMPPPGTRV [p53.149M2 A]                          —

---

# System: central memory T cells
# protocolText: Central memory T cell cultured ELISPOT, phase 2 trial in advanced NSCLC
# Format: in vivo, human
# assaySetup: phase 2, month 12
readoutKind: % of patients with positive CTL/central memory T cell response (%)

> print(dat)
                entrysequence                  target  unitspec  reportedvalue
1     SMPPPGTRV [p53.149M2 A]  central memory T cells         %              0
2   YLQLVFGIEV [MAGE2.157 WT]  central memory T cells         %             50
3   KVAEIVHFL [MAGE3.112I5 A]  central memory T cells         %              0
4     IMIGHLVGV [CEA.691H5 A]  central memory T cells         %             50
5     RLLQETELV [HER2-689-WT]  central memory T cells         %              0
6      LLTFWNPPV [CEA.24V9 A]  central memory T cells         %             50
7     YLSGADLNL [CEA.605D6 A]  central memory T cells         %             25
8  KVFGSLAFV [HER2.369L2V9 A]  central memory T cells         %             50
9   KLBPVQLWV [p53.139L2B3 A]  central memory T cells         %             50
